System: P12-Ichikawa
assay-info: cell viability relative to DMSO control; higher = less cytotoxic
recorded-conditions: RPMI 5 mM glucose + 10% dialyzed FBS; 48 h; 0.000781 µM
test-readout: cell viability (%)

{"molecule": "C[C@@H]1CN(Cc2ccc(F)cc2)[C@@H](C)CN1C(=O)c1cc2c(C(=O)C(=O)N(C)C)cn(C)c2cc1Cl", "tested-on": "P12-Ichikawa", "result-value": 119}
{"molecule": "COC(=O)Nc1nc2cc(C(=O)c3ccc(F)cc3)ccc2[nH]1", "tested-on": "P12-Ichikawa", "result-value": 95.5}
{"molecule": "CCOc1cc2ncc(C#N)c(Nc3ccc(OCc4ccccn4)c(Cl)c3)c2cc1NC(=O)/C=C/CN(C)C", "tested-on": "P12-Ichikawa", "result-value": 119}
{"molecule": "COc1ccc(C(=O)c2c(C)n(CCN3CCOCC3)c3ccccc23)cc1", "tested-on": "P12-Ichikawa", "result-value": 96.5}
{"molecule": "COc1cc([C@@H]2c3cc4c(cc3[C@H](O)[C@H]3COC(=O)[C@@H]23)OCO4)cc(OC)c1OC", "tested-on": "P12-Ichikawa", "result-value": 86.9}
{"molecule": "CCOC(=O)[C@@]1(CCCCCCOc2ccc(Cl)cc2)CO1", "tested-on": "P12-Ichikawa", "result-value": 121}
{"molecule": "CC(NC(C)(C)C)C(=O)c1cccc(Cl)c1 (centres undefined)", "tested-on": "P12-Ichikawa", "result-value": 114}
{"molecule": "C/C(=N\\NC(=S)N1CCC1)c1ccccn1", "tested-on": "P12-Ichikawa", "result-value": 117}
{"molecule": "CCOC(=O)N1c2ccc(C(F)(F)F)cc2[C@@H](N(Cc2cc(C(F)(F)F)cc(C(F)(F)F)c2)C(=O)OC)C[C@H]1CC", "tested-on": "P12-Ichikawa", "result-value": 115}

====

System: P12-Ichikawa
assay-info: cell viability relative to DMSO control; higher = less cytotoxic
recorded-conditions: HPLM + 10% dialyzed FBS; 48 h; 1.71 µM

{"smiles-code": "O=C(Nc1nnc(-c2ccco2)o1)c1cc(-c2ccccc2)nc2ccccc12", "unit-of-measurement": "%", "cell viability": 109}
{"smiles-code": "CN(C)c1ccc2nc3ccc(N(C)C)cc3[s+]c2c1", "unit-of-measurement": "%", "cell viability": 102}
{"smiles-code": "C[C@@H]1O[C@@H](O[C@H]2C[C@@H](O)[C@]3(CO)[C@H]4[C@H](O)C[C@]5(C)[C@@H](C6=CC(=O)OC6)CC[C@]5(O)[C@@H]4CC[C@]3(O)C2)[C@H](O)[C@H](O)[C@H]1O", "unit-of-measurement": "%", "cell viability": 12.3}
{"smiles-code": "Cc1cc(O)c2c(c1)C(=O)c1cccc(O)c1C2=O", "unit-of-measurement": "%", "cell viability": 133}
{"smiles-code": "COc1ccc(C(=O)c2c(C)n(CCN3CCOCC3)c3ccccc23)cc1", "unit-of-measurement": "%", "cell viability": 109}
{"smiles-code": "COc1cc([C@@H]2c3cc4c(cc3[C@H](O)[C@H]3COC(=O)[C@@H]23)OCO4)cc(OC)c1OC", "unit-of-measurement": "%", "cell viability": 14.3}
{"smiles-code": "CC(=O)OC[C@H]1O[C@@H]([S-])[C@H](OC(C)=O)[C@@H](OC(C)=O)[C@@H]1OC(C)=O.CCP(CC)CC.[Au+]", "unit-of-measurement": "%", "cell viability": 94.5}
{"smiles-code": "COc1cc2ncn(-c3cc(OCc4ccccc4[S+](C)(=O)[O-])c(C#N)s3)c2cc1OC", "unit-of-measurement": "%", "cell viability": 94.1}
{"smiles-code": "CCOc1cc2ncc(C#N)c(Nc3ccc(OCc4ccccn4)c(Cl)c3)c2cc1NC(=O)/C=C/CN(C)C", "unit-of-measurement": "%", "cell viability": 6.67}
{"smiles-code": "CCc1cc2c(cc1N1CCC(N3CCOCC3)CC1)C(C)(C)c1[nH]c3cc(C#N)ccc3c1C2=O", "unit-of-measurement": "%", "cell viability": 121}
{"smiles-code": "C[C@@H](NCCCc1cccc(C(F)(F)F)c1)c1cccc2ccccc12", "unit-of-measurement": "%", "cell viability": 118}
{"smiles-code": "CCn1c(-c2nonc2N)nc2c(C#CC(C)(C)O)ncc(OC[C@H]3CCCNC3)c21", "unit-of-measurement": "%", "cell viability": 66.3}
{"smiles-code": "CN(C)C1=CC(=CC=C1)C\\2=C\\3C(=O)N(NC3=C/C(=O)N2C)C4=CC=CC=C4Cl", "unit-of-measurement": "%", "cell viability": 10.8}
{"smiles-code": "CC[N+](CC)(CC)CCOc1cccc(OCC[N+](CC)(CC)CC)c1OCC[N+](CC)(CC)CC", "unit-of-measurement": "%", "cell viability": 91.6}
{"smiles-code": "Cc1nn(C)c(COc2ccc(N3CCN([S+](=O)([O-])N(C)C)CC3)cc2)c1-c1cccc2c(CCCOc3cccc4ccccc34)c(C(=O)O)n(CCN3CCOCC3)c12", "unit-of-measurement": "%", "cell viability": 110}
{"smiles-code": "Cc1ccc(C(=O)Nc2cccc(C(F)(F)F)c2)cc1-c1ccc2nc(NCCN3CCOCC3)ncc2c1", "unit-of-measurement": "%", "cell viability": 92.6}

====

System: P12-Ichikawa
assay-info: cell viability relative to DMSO control; higher = less cytotoxic
recorded-conditions: HPLM + 10% dialyzed FBS; 48 h; 0.000781 µM
In this section, each of the compounds is paired with its reported cell viability.
test-readout: cell viability (%)

{"smiles-code": "CC(=O)OC[C@H]1O[C@@H]([S-])[C@H](OC(C)=O)[C@@H](OC(C)=O)[C@@H]1OC(C)=O.CCP(CC)CC.[Au+]", "tested-on": "P12-Ichikawa", "result-value": 89.2}
{"smiles-code": "CC(=O)N[C@@H]1[C@@H](NC(N)=N)\\C=C(/O[C@H]1[C@H](O)[C@H](O)CO)C(O)=O", "tested-on": "P12-Ichikawa", "result-value": 92.9}
{"smiles-code": "NC[C@@H]1O[C@H](O[C@H]2[C@@H](O)[C@H](O[C@@H]3[C@@H](O)[C@H](N)C[C@H](N)[C@H]3O[C@H]3O[C@H](CN)[C@@H](O)[C@H](O)[C@H]3N)O[C@@H]2CO)[C@H](N)[C@@H](O)[C@@H]1O.O=S(=O)(O)O.O=S(=O)(O)O.O=S(=O)(O)O", "tested-on": "P12-Ichikawa", "result-value": 108}

====

Tested on: SEM cells
assay-info: cell viability relative to DMSO control; higher = less cytotoxic
recorded-conditions: RPMI 5 mM glucose + 10% dialyzed FBS; 48 h; 0.000781 µM

{"molecule": "NC(=O)Nc1sc(-c2ccc(F)cc2)cc1C(N)=O", "tested-on": "SEM cells", "cell viability / %": 112}
{"molecule": "COc1cc([C@@H]2c3cc4c(cc3[C@H](O)[C@H]3COC(=O)[C@@H]23)OCO4)cc(OC)c1OC", "tested-on": "SEM cells", "cell viability / %": 75.4}
{"molecule": "Cc1ccc(C(=O)Nc2cccc(C(F)(F)F)c2)cc1-c1ccc2nc(NCCN3CCOCC3)ncc2c1", "tested-on": "SEM cells", "cell viability / %": 109}
{"molecule": "O=C/1NC(=O)C(=C1C2=CN=C3C=CC=C[N]23)/C4=C[N]5CCN(CC6=C5C4=CC=C6)C(=O)N7CCOCC7", "tested-on": "SEM cells", "cell viability / %": 101}
{"molecule": "CCC(C)N1\\N=C/N(C1=O)C2=CC=C(C=C2)N3CCN(CC3)C4=CC=C(OC[C@H]5CO[C@@](C[N]6C=NC=N6)(O5)C7=CC=C(Cl)C=C7Cl)C=C4 (some centres not stated)", "tested-on": "SEM cells", "cell viability / %": 78.4}
{"molecule": "CN(C)C1=CC(=CC=C1)C\\2=C\\3C(=O)N(NC3=C/C(=O)N2C)C4=CC=CC=C4Cl", "tested-on": "SEM cells", "cell viability / %": 109}
{"molecule": "OC1=CC2=C(C=C1)C(=O)\\C(=C(O2)\\C3=CC(=C(O)C=C3)O)O", "tested-on": "SEM cells", "cell viability / %": 84.9}
{"molecule": "CCN1C[C@H](C)[N]2C(=C(O)C3=C2\\C(=N/N(CC4=CC=C(F)C(=C4)Cl)C3=O)C(=O)NC)C1=O", "tested-on": "SEM cells", "cell viability / %": 101}
{"molecule": "NC(=O)[C@H]1CCS[C@@H]2C[C@]3(CCCN3C(=O)Cc3ccc(NC(=O)COc4ccc(Cl)cc4Cl)cc3)C(=O)N12", "tested-on": "SEM cells", "cell viability / %": 115}
{"molecule": "N#Cc1ccc(Oc2ccc3c(c2)COB3O)cc1", "tested-on": "SEM cells", "cell viability / %": 115}
{"molecule": "COC(=O)Nc1nc2cc(C(=O)c3ccc(F)cc3)ccc2[nH]1", "tested-on": "SEM cells", "cell viability / %": 83.6}
{"molecule": "O=C1CCC[C@@H]2[C@H]3CCCN4CCC[C@@H](CN12)[C@@H]34", "tested-on": "SEM cells", "cell viability / %": 60.4}
{"molecule": "O=[N+]([O-])c1ncc[nH]1", "tested-on": "SEM cells", "cell viability / %": 108}
{"molecule": "CC[C@]12CC[C@H]3[C@@H](CCC/4=C/C(=O)CC[C@H]34)[C@@H]1CC[C@@]2(O)C#C", "tested-on": "SEM cells", "cell viability / %": 103}
{"molecule": "CO[C@@]12[C@H](COC(N)=O)C/3=C(N1C[C@@H]4N[C@H]24)/C(=O)/C(=C(N)\\C3=O)C", "tested-on": "SEM cells", "cell viability / %": 131}
{"molecule": "Cc1c(-c2cccc3c(CCCOc4cccc5ccccc45)c(C(=O)O)n(Cc4cccnc4)c23)c(COc2ccc(N3CCN([S+](=O)([O-])N(C)C)CC3)cc2)nn1C", "tested-on": "SEM cells", "cell viability / %": 107}
{"molecule": "COc1cc(CCc2cc(NC(=O)c3ccc(N4C[C@@H](C)N[C@@H](C)C4)cc3)n[nH]2)cc(OC)c1", "tested-on": "SEM cells", "cell viability / %": 122}
